Biological target: human A2B adenosine receptor (Homo sapiens (Human), UniProt P29275)
Sequence (P29275 whole entry): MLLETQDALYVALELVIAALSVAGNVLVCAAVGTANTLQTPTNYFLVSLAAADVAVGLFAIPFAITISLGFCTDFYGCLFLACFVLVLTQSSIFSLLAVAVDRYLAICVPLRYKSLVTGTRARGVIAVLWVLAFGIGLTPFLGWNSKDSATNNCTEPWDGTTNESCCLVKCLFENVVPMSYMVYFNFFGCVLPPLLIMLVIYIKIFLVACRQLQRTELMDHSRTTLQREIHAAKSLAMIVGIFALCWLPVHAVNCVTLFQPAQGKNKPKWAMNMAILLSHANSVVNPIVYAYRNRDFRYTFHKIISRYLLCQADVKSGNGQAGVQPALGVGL
Test: A2B binding affinity, radioligand filtration binding assay
Settings: value given with marker (A); HEK293 membranes expressing human A2B, tritiated proprietary antagonist
For each entry below, report its IC50 value.
Answer with the value and then the unit.

Provide each entry's IC50 from the list below.
1. CCS(=O)(=O)CCc1nc2c3cc(F)cc(OC)c3nc(N)n2n1 [Example 13.15]
2. COc1cc(F)cc2c1nc(N)n1nc(COCc3ccc(C(C)(C)O)cc3)nc21 [Example 4.14]
3. COc1cccc2c1nc(N)n1nc(CCC3CCc4c(nnn4C4CC(F)(F)C4)C3)nc21 (single isomer, unassigned) [Example 5.3B]
4. COc1cc2nc(N)n3nc(CC(C)S(C)(=O)=O)nc3c2cc1F (single isomer, unassigned) [Example 13.2A]
5. COc1cc2nc(N)n3nc(CCS(=O)(=O)C4CC4)nc3c2cc1F [Example 13.14]

Completion:
["220 nM", "9.1 nM", "3.1 nM", "61.4 nM", "197 nM"]
